These measurements were taken from ChEMBL document CHEMBL1857833.

System: Trypanosoma brucei
assay summary: DNDI: Inhibition of Human African Trypanosomiasis, SBRI 427, in vitro at 2 ug.mL-1
Type: functional
Hit rate of the full screen: of about 4,400 compounds, about 390 (8.9%) showed an effect of 50% or more. Many of the other results were omitted from the sample, so strong results are more common in it than they were.
observable: % inhibition (%)
Write down the numeric answer in % and omit the unit.

Look over these answered cases.
structure smiles string: CCC(CC)N/C(=N\O)c1cccnc1OCc1ccccc1
% inhibition (%): 94
--
structure smiles string: O/N=C(\NC1CCCC1)c1cccnc1OCc1ccccc1
% inhibition (%): 53

Here is another compound to look at.
[Q] # input compound: `COc1ccc(CN/C(=N\O)c2ccc(Oc3cccc(OC)c3)nc2)cc1` ; wanted: its % inhibition
[A] 10
